- System: PPARg:RXRa DBDmut IVT, anti-RXR (DBD mutation: RXRa K156A/R161A, NR concentration 270 nM, RXRa partner concentration 90 nM)
- method-notes: PBM binding z-score (relative to random genomic background probes); higher = stronger binding; sequences stand for … in GC…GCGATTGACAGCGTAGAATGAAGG
Below, each entry is listed alongside its reported PBM binding z-score.
Enter the number alone.

Examples with their reported PBM binding z-score follow.
ACAGATAGGTGATGAAGGTAACTCAGGCTATCAT 0.825
ACAGACAGGTGAGTGAAGGTAACGCAGCTGGACG 0.361
TCTGCTAGGTCAACGATCGTCAGCTAATCTGCTA 4.39
AATACATGGTCATCGTAGGCCAGAGTACGCACAG 0.199
GCTCGGAGGACAAGGTCAGACCTTTGTCCGTAGA -0.401

// query Using the record for "TCTCGGAGGACACGAAAGGTCAAAGCTCGACATC" , report its PBM binding z-score.
// result 1.72

// query Using the record for "CCGAATGGGGCAGAAAGGTTACCATACCATCCGG" , report its PBM binding z-score.
// result 0.269

// query Using the record for "TAGCCTAGGTCATGTGGGCCAGTATAGTGTCGGC" , report its PBM binding z-score.
// result 1.81

// query Using the record for "CCTTACGGGTCACTCACAGGTTATAGCATTTGGA" , report its PBM binding z-score.
// result 3.1

// query Using the record for "TCATACAGGTAAAGGTGAAAGTCGAACGATATGA" , report its PBM binding z-score.
// result 2.37

====

- Tested on: LXRb homodimer (NR concentration 270 nM)
- method-notes: PBM binding z-score (relative to random genomic background probes); higher = stronger binding; sequences stand for … in GC…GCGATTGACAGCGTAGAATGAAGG
# label = Fulfilled if PBM binding z-score >= -0.08 else Not fulfilled

Look over these answered cases.
ATCTCTAGCTAAAGTTCAGTGAAAGATCGATAGA Fulfilled
GGAACGAGGGAAAGTTGATAGCAGAGTTTGATGG Not fulfilled
CAAACTAGGTCACAGAGGTAAAAGTCCGTGCGTA Fulfilled
CCTTACGGGTCACGATGTTATAGCACGACGAGCG Fulfilled
TCTTGTGGATCAACAGGAGGTTAAGAAAGATCGA Not fulfilled

// query Check this sequence for PBM binding z-score at or above -0.08: "TTACCAAGCTGAGCTGAGGTCGTTGATCCAACTC"
// result Not fulfilled

// query Check this sequence for PBM binding z-score at or above -0.08: "CGAACTAGGTCAGAACACGACAGTGAAGGATGAT"
// result Not fulfilled

// query Check this sequence for PBM binding z-score at or above -0.08: "TAGCCTAGGTCATTCAGGGGCCATTATAGAAAGC"
// result Fulfilled

// query Check this sequence for PBM binding z-score at or above -0.08: "GCGCCTGGGGCAAAGCAGGTTACCATAAGGTTGG"
// result Not fulfilled

// query Check this sequence for PBM binding z-score at or above -0.08: "TCTCGGGGGACACGAAGGTCAGAGCTTTCCAGAG"
// result Fulfilled

// query Check this sequence for PBM binding z-score at or above -0.08: "TCTTCTAGATCAAGCAGGTTAAGAAAGCCTGAGT"
// result Fulfilled

// query Check this sequence for PBM binding z-score at or above -0.08: "AGAATGAGGTTAAGATCAGGGAAACAGAATACAT"
// result Fulfilled

====

- System: PPARg:RXRa 90nM:30nM, anti-RXR (NR concentration 90 nM, RXRa partner concentration 30 nM)
- method-notes: PBM binding z-score (relative to random genomic background probes); higher = stronger binding; sequences stand for … in GC…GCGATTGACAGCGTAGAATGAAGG
parameter-measured: PBM binding z-score
Enter the number alone.

Examples with their reported PBM binding z-score follow.
GGAACGAGGGCAAAGTTGACAGCATCTGTCGACG 8.34
CCTACTGGGCCATCAGGTCATTTATATCAACGTT 2.57
ACAGACAGGTGATTGAAGGTAACTCAGCTGGACG -0.274
AGAACGAGGCCAATGAGTTGATAGCACGGGTGGC 0.093
CAAACTAGGTCTCAGAGGTCAAAGTCCGTGCGTA 4.41
ATCTCTAGGTAAAGATAGTTCAGCGAATGCAAAT 0.368

// query Using the record for "TCTATTAGTTGATTAGGGCCACCGAAACAGCGGA" , report its PBM binding z-score.
// result 2.7

// query Using the record for "GCTCGAAGGACAAGGTCAGAGCTTTGTCCGTAGA" , report its PBM binding z-score.
// result 0.829

// query Using the record for "AAACCAAGGTGATCGTGAGGTCGTTGATACTAAC" , report its PBM binding z-score.
// result 0.389

// query Using the record for "CCCACTGGGCCATCAGGTCATTGATATCAACGTT" , report its PBM binding z-score.
// result 2.86

// query Using the record for "CCAGACAGGTGATAAGGTAACTCAGCCTCGATTA" , report its PBM binding z-score.
// result 0.191

// query Using the record for "CGAACTAGGTCAAAACAGGACAGTGAAGGATGAT" , report its PBM binding z-score.
// result 5.36

====

- Test system: PPARg DBDmut:RXRa IVT, anti-PPARg (DBD mutation: PPARg1 K132A/R137A, NR concentration 270 nM, RXRa partner concentration 90 nM)
- method-notes: PBM binding z-score (relative to random genomic background probes); higher = stronger binding; sequences stand for … in GC…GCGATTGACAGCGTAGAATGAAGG
parameter-measured: PBM binding z-score
Enter the number alone.

Examples with their reported PBM binding z-score follow.
GTACCAAGGTGAATAGGTCGTTGGTGAGTAGGCG -0.162
TCGAGTAGCTTAGGGGCATTCAGAATGGCGTCGA -0.673
CCTTACGGTTCACTCCAGGTTATAGCATCGGAGT 0.147
TCGAGTAGGTTAGGGCCATTCAGAATGGCGTCGA -0.334
CCTCGGAGGACAACAGGGGGTCAGAGCTGCCAGA 0.527
CCTACTGGGCCAACGGTCATTGATTCCAATGCTC -0.311

// query Using the record for "ACTTACGGGTCAACGAGGTGATAGCACGCGTATA" , report its PBM binding z-score.
// result 2.02

// query Using the record for "AGAACGAGGGCACGCTGAGTTGATCGCAGAGTAG" , report its PBM binding z-score.
// result 0.408

// query Using the record for "AGAACGAGGGCACGCTGAGGTGATAGCAGAGTAG" , report its PBM binding z-score.
// result 1.26

// query Using the record for "CGACCTAGGTCATTGACAGGACAGTGAATAGTAA" , report its PBM binding z-score.
// result 0.789

// query Using the record for "CCTAGTTGATCAGGAGGTCACACACCGGATATGA" , report its PBM binding z-score.
// result 0.83

// query Using the record for "TCGAGTAGGTTAGCAATGGGGCATTCAGCTTTCT" , report its PBM binding z-score.
// result -0.902

// query Using the record for "CGTCCTAGGTCAAGGTCAGTGAAAGAGACTCGAA" , report its PBM binding z-score.
// result 0.311

// query Using the record for "GCGACTCGGGCAAAGCAGGTTACCATAAGGTTGG" , report its PBM binding z-score.
// result -1.22

// query Using the record for "CCTGCTAGGTAATGGTCAGCTAATCTACAGTATG" , report its PBM binding z-score.
// result -0.293

====

- Test system: LXRa homodimer (NR concentration 270 nM)
- method-notes: PBM binding z-score (relative to random genomic background probes); higher = stronger binding; sequences stand for … in GC…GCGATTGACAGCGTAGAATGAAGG
Below, each entry is listed alongside its reported PBM binding z-score.
Enter the number alone.

AGAAAGAGGGCACGCTGAGTTGATAGCAGAGTAG -0.317
CCAGACATGTGAGAAGGTAACTCAGCCTCGATTA 0.298
TCTATTAGTTGAAGGGCAATCGACGAGTCCGTTT 0.341

// query Using the record for "CGAACTAGGTCAAGGACATTGAATCTCCGCACGC" , report its PBM binding z-score.
// result 0.44

// query Using the record for "TCTTGTAGATCAAAGGTTAAGAATGCCGAAGCCT" , report its PBM binding z-score.
// result 0.248

// query Using the record for "CTACCAAGGTGATCAAGGTCGTTGATTACTATTC" , report its PBM binding z-score.
// result 0.0949

====

- System: RARb:RXRa (NR concentration 270 nM, RXRa partner concentration 90 nM)
- method-notes: PBM binding z-score (relative to random genomic background probes); higher = stronger binding; sequences stand for … in GC…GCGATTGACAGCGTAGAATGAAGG
parameter-measured: PBM binding z-score
Enter the number alone.

Examples with their reported PBM binding z-score follow.
CGAACTAGGTCATTGACAGGACATTGAATAGTAA 3.52
ATCTCTAGCTAAAAGTTCAGTGAATCCCGAGGAT 2.17
CCTAGCAGGCCAGGGCCACTCAAGCATTTCGCTT 0.21
ACTATTAGTTGACTTAGGGCCACCGATACGACGC 0.755

// query Using the record for "CCTTGGAGGACAACAGGAGGTCAGAGCTGCCAGA" , report its PBM binding z-score.
// result 2.83
